targetDesc: T1, Peptide-8 (human, phosphothreonine 212 (tau 2N4R numbering); SCBiot and dPEG4 at the N-terminus; amide at the C-terminus)
T1 construct: also called pT212-tau peptide (Peptide-8)
T1 sequence (peptide, as listed by the source): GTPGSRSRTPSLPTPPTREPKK
measurementDescription: SPR ProteOn, mAb captured by anti-human Fc, peptide as analyte
Property: pKd; scope: individual binders
pKd here: minus log base 10 of the concentration, concentration in moles per litre.

{"binder": "B252 (antibody, human IgG1, V domains shown, Humanized (HFA) PT3 variant, human IgG1/kappa; also called VH93/VL80) VH: QVQLVESGGGLVKPGGSLRLSCAASGFTFSSYAMSWIRQAPGKGLEWVSSISKGGNTYYADSVKGRFTISRDNAKNSLYLQMNSLRAEDTAVYYCARGWGDYGWFAYWGQVTLVTVSS VL: DIVMTQTPLSSPVTLGQPASISCKASQDINRYLNWLQQRPGQPPRLLIYRANRLLDGVPDRFSGSGAGTDFTLKISRVEAEDVGVYYCLQYDEFPLTFGQGTKLEIK", "readoutValue": 7.49}
{"binder": "B296 (antibody, human IgG1, kappa, V domains shown, Humanized PT3, human IgG1/kappa; also called VH92/VL77; HFA-PT3) VH: QVQLVESGGGVVQPGRSLRLSCAASGFTFSSYAMSWVRQAPGKGLEWVASISKGGNTYYADSVKGRFTISRDNSKNTLYLQMNSLRAEDTAVYYCARGWGDYGWFAYWGQVTLVTVSS VL: DIQMTQSPSSLSASVGDRVTITCKASQDINRYLNWFQQKPGKAPKSLIYRANRLLDGVPSRFSGSGSGTDFTLTISSLQPEDFATYYCLQYDEFPLTFGQGTKLEIKR", "readoutValue": 7.57}
{"binder": "B234 (antibody, human IgG1, V domains shown, Mouse PT3 variable regions (VH10/VL7) with human IgG1/kappa constant region; also called mouse PT3, hIgG1) VH: EVKLVESGGDLVKPGGSLKLSCAASGFTFSSYAMSWVRQNPEKRLEWVASISKGGNTYYPNSVKGRFTISRDNARNILYLQMSSLRSEDTALYYCARGWGDYGWFAYWGQVTLVTVSA VL: DIKMTQSPSSMYASLGERVTITCKASQDINRYLNWFQQKPGKSPKTLIYRANRLLDGVPSRFSGSGSGQDYSLTISSLDYEDMGIYYCLQYDEFPLTFGDGTKLELK", "readoutValue": 8.46}

--- query ---
[Q] Look up pKd for this binder: B282 (antibody, human IgG1, V domains shown, Humanized (HFA) PT3 variant, human IgG1/kappa; also called VH93/VL77) VH: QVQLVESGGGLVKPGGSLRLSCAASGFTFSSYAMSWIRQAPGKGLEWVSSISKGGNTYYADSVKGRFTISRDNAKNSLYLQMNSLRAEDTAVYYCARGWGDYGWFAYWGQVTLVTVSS VL: DIQMTQSPSSLSASVGDRVTITCKASQDINRYLNWFQQKPGKAPKSLIYRANRLLDGVPSRFSGSGSGTDFTLTISSLQPEDFATYYCLQYDEFPLTFGQGTKLEIK
[A] 7.06
